Test system: Kato III
Assay: CellTiterblue viability, 72 hr, Kato III
Format: cell-based
Settings: Homo sapiens, Kato III cells
observation-type: GI50

// worked examples, GI50 included
Cc1cc2c(F)c(Oc3cc(Nc4ccc(N5CCN(C)CC5)cc4)ncn3)ccc2[nH]1 :: 165 nM
CCN1CCN(c2ccc(Nc3ncnc(Oc4ccc5c(cc(C)n5C)c4F)c3F)cc2)CC1 :: > 500 nM
Cc1cc2c(F)c(Oc3ncnc(Nc4ccc(N5CCN(C)CC5)cc4)c3C#N)ccc2[nH]1 :: 12 nM

Input line: Report GI50 under test system Kato III for Cc1cc2c(F)c(Oc3ncnc(Nc4ccc(N5CCN(C)CC5)cc4)c3Cl)ccc2[nH]1 .
Output line: > 500 nM

====

Biological target: Alk kinase (Homo sapiens, UniProt Q9UM73)
Construct: purchased Millipore (KinaseProfiler Service)
Sequence (Q9UM73 19-1620): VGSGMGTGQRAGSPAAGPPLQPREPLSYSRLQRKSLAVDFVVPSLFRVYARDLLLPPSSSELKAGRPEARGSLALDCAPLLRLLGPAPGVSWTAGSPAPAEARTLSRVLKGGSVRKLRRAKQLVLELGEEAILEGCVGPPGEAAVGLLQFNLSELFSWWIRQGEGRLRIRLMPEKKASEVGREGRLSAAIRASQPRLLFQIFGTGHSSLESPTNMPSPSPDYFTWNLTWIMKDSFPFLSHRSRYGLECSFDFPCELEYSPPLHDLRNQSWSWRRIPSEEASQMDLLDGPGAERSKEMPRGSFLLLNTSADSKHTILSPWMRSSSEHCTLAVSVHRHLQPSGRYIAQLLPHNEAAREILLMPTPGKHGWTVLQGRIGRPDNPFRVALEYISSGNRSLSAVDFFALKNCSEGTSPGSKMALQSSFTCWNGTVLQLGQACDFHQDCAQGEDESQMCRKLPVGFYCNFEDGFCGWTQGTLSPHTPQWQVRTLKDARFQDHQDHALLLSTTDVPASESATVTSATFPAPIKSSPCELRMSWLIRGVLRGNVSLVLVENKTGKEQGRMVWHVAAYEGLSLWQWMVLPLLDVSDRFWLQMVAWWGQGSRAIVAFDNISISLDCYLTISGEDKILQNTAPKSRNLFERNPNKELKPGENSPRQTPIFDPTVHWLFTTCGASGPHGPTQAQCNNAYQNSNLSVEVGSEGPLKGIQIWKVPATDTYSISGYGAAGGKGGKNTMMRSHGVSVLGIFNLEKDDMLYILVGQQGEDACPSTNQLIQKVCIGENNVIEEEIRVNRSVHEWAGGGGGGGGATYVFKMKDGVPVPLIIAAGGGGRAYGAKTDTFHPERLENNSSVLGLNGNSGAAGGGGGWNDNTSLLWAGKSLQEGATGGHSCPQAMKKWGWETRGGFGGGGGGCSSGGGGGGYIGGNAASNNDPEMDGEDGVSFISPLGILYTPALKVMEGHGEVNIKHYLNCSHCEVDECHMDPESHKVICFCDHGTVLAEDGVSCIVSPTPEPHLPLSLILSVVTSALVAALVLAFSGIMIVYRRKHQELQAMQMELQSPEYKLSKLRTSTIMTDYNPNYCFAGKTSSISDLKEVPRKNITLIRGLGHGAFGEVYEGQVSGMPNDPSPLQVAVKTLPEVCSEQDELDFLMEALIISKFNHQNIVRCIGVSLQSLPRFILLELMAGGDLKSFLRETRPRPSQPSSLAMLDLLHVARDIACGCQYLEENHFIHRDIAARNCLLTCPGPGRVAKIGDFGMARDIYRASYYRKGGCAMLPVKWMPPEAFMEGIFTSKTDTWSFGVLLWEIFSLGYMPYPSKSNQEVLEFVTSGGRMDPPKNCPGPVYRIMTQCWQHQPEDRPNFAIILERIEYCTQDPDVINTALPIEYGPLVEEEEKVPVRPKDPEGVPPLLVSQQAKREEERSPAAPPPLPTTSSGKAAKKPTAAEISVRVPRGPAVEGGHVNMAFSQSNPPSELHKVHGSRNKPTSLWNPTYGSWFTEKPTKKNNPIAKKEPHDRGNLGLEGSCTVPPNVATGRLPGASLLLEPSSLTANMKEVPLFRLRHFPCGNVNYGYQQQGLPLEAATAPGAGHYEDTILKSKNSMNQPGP
Test: KinaseProfiler kinase inhibition assay, Alk
Assay type: biochemical
Conditions: 1 μM compound
observation-type: inhibition at 1 µM

// worked examples, inhibition at 1 µM included
Cc1cc2c(F)c(Oc3ncnc(Nc4ccc(N5CCNCC5)cc4)c3C#N)ccc2[nH]1 [Compound 57] :: -40%
Cc1cc2c(F)c(Oc3ncnc(Nc4ccc(N5CCN(C)CC5)cc4)c3C#N)ccc2[nH]1 [Compound 54] :: -30%
Cc1cc2c(F)c(Oc3ncnc(Nc4ccc(N5CCNCC5)cc4)c3F)ccc2[nH]1 [Example 28] :: 62%
Cc1cc2c(F)c(Oc3cc(Nc4cc(C5CC5)[nH]n4)ncn3)ccc2[nH]1 [Example 16] :: 2%
CC(=O)N1CCN(c2ccc(Nc3ncnc(Oc4ccc5[nH]c(C)cc5c4F)c3F)cc2)CC1 [Example 26] :: 68%

Give inhibition at 1 µM for each listed item.
1. Cc1cc2c(F)c(Oc3cc(Nc4cc(-c5ccccc5)[nH]n4)ncn3)ccc2[nH]1 [Example 4]
2. CCOC(=O)c1cc(Nc2cc(Oc3ccc4[nH]c(C)cc4c3F)ncn2)n[nH]1 [Example 19]
3. Cc1cc2c(F)c(Oc3cc(Nc4ccc(N5CCN(C)CC5)c(F)c4)ncn3)ccc2[nH]1 [Example 14]

Output line:
["53%", "-5%", "53%"]

====

Target: Ret kinase (Homo sapiens, UniProt P07949)
Construct: purchased Millipore (KinaseProfiler Service)
Sequence (P07949 29-1114): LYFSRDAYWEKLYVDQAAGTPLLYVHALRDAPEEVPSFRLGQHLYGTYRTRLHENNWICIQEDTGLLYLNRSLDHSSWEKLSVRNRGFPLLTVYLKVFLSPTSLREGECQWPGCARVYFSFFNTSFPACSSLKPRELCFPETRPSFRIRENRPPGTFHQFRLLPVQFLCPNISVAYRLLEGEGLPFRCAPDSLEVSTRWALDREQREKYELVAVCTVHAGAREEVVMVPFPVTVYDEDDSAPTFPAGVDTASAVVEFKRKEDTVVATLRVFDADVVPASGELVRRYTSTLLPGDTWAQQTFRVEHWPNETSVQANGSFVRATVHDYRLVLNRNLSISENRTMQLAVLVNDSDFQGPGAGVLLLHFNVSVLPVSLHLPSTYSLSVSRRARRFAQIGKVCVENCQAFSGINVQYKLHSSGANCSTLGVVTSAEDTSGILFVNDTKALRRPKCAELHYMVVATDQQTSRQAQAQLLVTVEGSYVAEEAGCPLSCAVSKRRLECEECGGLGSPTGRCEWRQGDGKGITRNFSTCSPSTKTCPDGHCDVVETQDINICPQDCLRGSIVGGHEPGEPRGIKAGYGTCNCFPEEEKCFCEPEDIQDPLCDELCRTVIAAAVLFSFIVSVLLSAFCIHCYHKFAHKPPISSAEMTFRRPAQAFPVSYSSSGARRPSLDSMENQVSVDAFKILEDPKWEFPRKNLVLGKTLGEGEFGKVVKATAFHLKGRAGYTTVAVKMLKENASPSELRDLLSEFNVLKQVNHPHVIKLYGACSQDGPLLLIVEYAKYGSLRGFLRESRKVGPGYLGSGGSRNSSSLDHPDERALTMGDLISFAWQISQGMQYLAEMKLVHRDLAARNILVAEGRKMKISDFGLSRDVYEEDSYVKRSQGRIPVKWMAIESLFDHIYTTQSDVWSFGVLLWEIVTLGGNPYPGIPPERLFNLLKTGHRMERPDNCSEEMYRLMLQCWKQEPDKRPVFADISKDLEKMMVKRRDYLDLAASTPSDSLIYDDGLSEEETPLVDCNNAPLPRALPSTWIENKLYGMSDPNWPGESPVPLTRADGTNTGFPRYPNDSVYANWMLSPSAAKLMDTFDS
Experiment: KinaseProfiler kinase inhibition assay, Ret
Format: biochemical
Details: 1 μM compound
observation-type: inhibition at 1 µM
Returns: string containing the number followed by the unit.

// worked examples, inhibition at 1 µM included
Cc1cc2c(F)c(Oc3cc(Nc4cc(-c5ccccn5)[nH]n4)ncn3)ccc2[nH]1 :: 78%
CC(=O)Nc1ccc(Nc2cc(Oc3ccc4[nH]c(C)cc4c3F)ncn2)cc1 :: -16%
CCN1CCN(c2ccc(Nc3cc(Oc4ccc5[nH]c(C)cc5c4F)ncn3)cc2)CC1 :: 75%
COc1c(Nc2ccc(N3CCN(C)CC3)cn2)ncnc1Oc1ccc2[nH]c(C)cc2c1F :: -12%
CCN1CCN(c2ccc(Nc3ncnc(Oc4cc(F)c5[nH]c(C)cc5c4F)c3C#N)cc2)CC1 :: -42%

Give inhibition at 1 µM for each listed item.
1. Cc1cc2c(F)c(Oc3cc(Nc4ccccn4)ncn3)ccc2[nH]1
2. COc1ccc(-c2cc(Nc3cc(Oc4ccc5[nH]c(C)cc5c4F)ncn3)n[nH]2)cc1OC
3. CCN1CCN(c2ccc(Nc3ncnc(Oc4ccc5c(cc(C)n5C)c4F)c3C#N)cc2)CC1
4. Cc1cc2c(F)c(Oc3cc(N4CCN(c5ccc(N)cc5F)CC4)ncn3)ccc2[nH]1
5. Cc1cc2c(F)c(Oc3ncnc(Nc4ccc(N5CCN(C)CC5)cn4)c3N)ccc2[nH]1
6. Cc1cc2c(F)c(Oc3ncnc(Nc4ccc(N5CCN(C)CC5)cn4)c3Cl)ccc2[nH]1

Output line:
1: 68%; 2: 77%; 3: -19%; 4: -19%; 5: -30%; 6: 25%

Give inhibition at 1 µM for each listed item.
1. Cc1cc2c(F)c(Oc3cc(Nc4cc(-c5ccco5)[nH]n4)ncn3)ccc2[nH]1
2. Cc1cc2c(F)c(Oc3cc(Nc4ccc(N5CCN(C)CC5)cc4)ncn3)ccc2[nH]1
3. Cc1cc2c(F)c(Oc3ncnc(Nc4ccc(N5CCNCC5)cc4)c3F)ccc2[nH]1
4. C/C=C/c1cc(Nc2cc(Oc3ccc4[nH]c(C)cc4c3F)ncn2)n[nH]1
5. CCN1CCN(c2ccc(Nc3ncnc(Oc4ccc5[nH]c(C)cc5c4F)c3C#N)cc2)CC1
6. CC(=O)N1CCN(c2ccc(Nc3ncnc(Oc4ccc5[nH]c(C)cc5c4F)c3F)cc2)CC1

Output line:
["78%", "75%", "-15%", "73%", "-25%", "-17%"]
